Experiment: qHTS assay to identify small molecule antagonists of the estrogen receptor beta (ER-beta) signaling pathway - cell viability counter screen (AID 1259382);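 also: HEK293T cells carrying ER-beta-UAS-bla reporter stimulated with estradiol; % is scaled to controls: 0 for no effect and ±100 for the full control effect; nearly all actives have a fitted effect of over 55% in size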
Settings: ER-beta-UAS-bla HEK293T viability, CellTiter-Glo luminescence, 16 h; series mostly up to 92.4 µM
Results filed as inconclusive are left out. Calls of active or inactive are those of the source. Calls follow the shape of the dose curve; as a rule, active = well fitted cell-killing curve with a large enough effect in the repeat runs; inconclusive = weak or mixed curves; inactive = flat fitted curve, though single readings scatter.
measurement name: activity change, negative = cytotoxicity

Please report the recorded activity change, negative = cytotoxicity for CN(C)c1ccc(/C=C/c2ccc([N+](=O)[O-])cc2)cc1 .
-2.95% [at 8.39 µM] (inactive)

Param item: Cc1cc(C(=O)O)ccc1[N+](=O)[O-]
inactive

Repeat for the following compound: O=C(O)C(S)C(S)C(=O)O (configuration not stated)
inactive

Can you check CCCCCCCCCCCCN1CCCCCC1=O next?
inactive

Others:
activity change, negative = cytotoxicity lookup needed for OCCNCc1ccccc1 , thanks.
inactive

Please answer likewise for CCCCCC[C@@H](O)C/C=C\CCCCCCCC(=O)OC
inactive

Subsequent entry: C/C=C/C(=O)CC
2.99% [at 19 µM] (inactive)

Sourced from PubChem BioAssay (Tox21)
